tested on: B. animalis subsp. lactis; test: Microdilution MIC/MMC with resazurin; format: cell-based, Bifidobacterium animalis subsp. lactis; conditions: Bifidobacterium animalis; B. animalis subsp. lactis; compounds 1–8; read-out: MIC
Entries annotated with measured MIC
Response body: numeric value in µg/mL, unit text excluded.

Solved entries:
• CSC(=S)NCCc1ccccc1 [Compound 1, Methyl phenethylcarbamodithioate] = 1250
• S=C1NCC(c2ccccc2)O1 (racemic) = 1250
• CSC(=S)NCCc1ccc(O)cc1 = 78
• O=C1NCC(c2ccccc2)O1 (stereo not shown) = 2500
• O=C(O)C1CSC(=S)N1 (stereo not shown) = 625

Alright, here's another compound for you.
The compound S=C1NC[C@H](c2ccccc2)O1 [Compound 5, (S)-5-phenyl-1,3-oxazolidine-2-thione] , tested on B. animalis subsp. lactis, showed MIC of 1250
